Values were extracted from PubChem BioAssay (NCI).

TGI listing for selected molecules.
- System: A498 renal
- procedure.text: NCI tumour cell line growth inhibition, 48 h

molecule | TGI
O=C1/C(=C/c2ccc3c(c2)OCO3)CCC1CN1CCOCC1 (stereo unspecified) | 23.9 µM
O=c1[nH]c(=O)n(COCCO)c2ccc(Br)cc12 | > 100 µM
COc1cc(C(O)c2nc3ccccc3s2)cc(OC)c1OC (stereo unspecified) | > 100 µM
CC1=C(O)C(=O)C[C@]2(C)[C@H]3CC=C4[C@@H]5CC(C)(C)CC[C@@H]5C(=O)[C@H](O)[C@@]4(C)[C@]3(C)CC[C@@H]12 | > 50 µM
CN=CN(C)c1c2ccccc2nc2ccccc12 | > 100 µM
CC(C)(O)C1CCC(Nc2ccc3ncc(-c4cccc(C(F)(F)F)c4)n3n2)CC1 (stereo unspecified) | 4.49 µM
CCOC(=O)c1cc(C2CCN(CC(C)CC)C2=S)c(-c2cc(C)no2)[nH]1 (stereo unspecified) | > 100 µM
O=C(O)C(O)Cc1ccccn1 (stereo unspecified) | > 100 µM
C[C@]12CC[C@@H]3c4ccc(O)cc4CC[C@H]3[C@@H]1CC[C@@H]2NS(=O)(=O)c1cccc(C(F)(F)F)c1 | 8.75 µM
O=C1CC(c2ccc3c(c2)OCO3)Nc2cc3c(cc21)OCO3 (stereo unspecified) | 0.862 µM
C=C1C(=O)OC2C1CC[C@H](C)C13OC(=O)CC1[C@@]23C (stereo partly specified) | > 100 µM
